Cited source: PubChem BioAssay (Tox21)

target_entity: Voltage-gated inwardly rectifying potassium channel KCNH2 (Homo sapiens)
assay_overview: Human Ether-a-go-go-Related Gene (hERG) channel small molecule antagonists: fluorescence cell-based qHTS assay (AID 1671200); note: nearly all actives have a fitted effect of over 50% in size
particulars: hERG-U2OS cells, FluxOR thallium flux fluorescence; series mostly up to 76.8 µM
Results filed as inconclusive are left out. Active and inactive are the calls of the source. Calls come from the whole dose curve; as a rule, active = well fitted inhibition curve with a large enough effect in the repeat runs; inconclusive = weak or mixed curves; inactive = flat fitted curve, though single readings scatter.
Your answer must be one of the following: YES for active, NO for inactive

Here's what some known entries look like.
compound: C/C=C(\C)C(=O)OCCC(C)CCC=C(C)C (configuration not stated)
class_label: NO
//
compound: CO[C@@]12[C@H](COC(N)=O)C3=C(C(=O)C(C)=C(N)C3=O)N1C[C@@H]1N[C@@H]12
class_label: NO

Please let me know the test result on file for O=C(CS)OCCOC(=O)CS . NO

Please let me know the test result on file for Cc1oncc1C(=O)Nc1ccc(C(F)(F)F)cc1 . NO

Please let me know the test result on file for O=C(O)c1cccnc1C(=O)O . NO

Please let me know the test result on file for COC(=O)Nc1nc2ccc(C(=O)c3cccs3)cc2[nH]1 . NO

Please let me know the test result on file for CCCCC(=O)O[C@]1(C(=O)CO)[C@@H](C)C[C@H]2[C@@H]3CCC4=CC(=O)C=C[C@]4(C)[C@@]3(F)[C@@H](O)C[C@@]21C . NO

* * *

assay_overview: qHTS assay to identify small molecule agonists of the peroxisome proliferator-activated receptor delta (PPARd) signaling pathway - cell viability counter screen (AID 743211); note: nearly all actives have a fitted effect of over 55% in size
particulars: PPARd-bla HEK293H viability, CellTiter-Glo luminescence, 17 h; series mostly up to 62.6 µM
Excerpt: U.S. Tox21 Program National Center for Advancing Translational Sciences [NCATS] NIH Chemical Genomics Center [NCGC] U.S. Environmental Protection Agency [EPA] National Institutes of Environmental Health Sciences [NIEHS] National Toxicology Program [NTP] U.S. Food and Drug Administration [FDA] […]
Inconclusive results are not listed. Calls of active or inactive are those of the source. The call rests on the fitted dose curve; in most records, active means well fitted cell-killing curve with a large enough effect in the repeat runs; inconclusive means weak or mixed curves; inactive means no such curve, though single readings can be large or run the other way.
measure_name: outcome

compound: CC(C)CCCC(=O)O
obs_value: inactive
--
compound: CN1C(=O)CC(C)(c2ccccc2)C1=O (stereo not drawn)
obs_value: inactive
--
compound: CC(=O)[C@H]1CC[C@H]2[C@@H]3C[C@H](C)C4=CC(=O)CC[C@]4(C)[C@H]3[C@@H](O)C[C@]12C
obs_value: inactive

* * *

target_entity: Voltage-gated inwardly rectifying potassium channel KCNH2 (Homo sapiens) (UniProt Q12809)
Sequence (Q12809 whole entry, looked up): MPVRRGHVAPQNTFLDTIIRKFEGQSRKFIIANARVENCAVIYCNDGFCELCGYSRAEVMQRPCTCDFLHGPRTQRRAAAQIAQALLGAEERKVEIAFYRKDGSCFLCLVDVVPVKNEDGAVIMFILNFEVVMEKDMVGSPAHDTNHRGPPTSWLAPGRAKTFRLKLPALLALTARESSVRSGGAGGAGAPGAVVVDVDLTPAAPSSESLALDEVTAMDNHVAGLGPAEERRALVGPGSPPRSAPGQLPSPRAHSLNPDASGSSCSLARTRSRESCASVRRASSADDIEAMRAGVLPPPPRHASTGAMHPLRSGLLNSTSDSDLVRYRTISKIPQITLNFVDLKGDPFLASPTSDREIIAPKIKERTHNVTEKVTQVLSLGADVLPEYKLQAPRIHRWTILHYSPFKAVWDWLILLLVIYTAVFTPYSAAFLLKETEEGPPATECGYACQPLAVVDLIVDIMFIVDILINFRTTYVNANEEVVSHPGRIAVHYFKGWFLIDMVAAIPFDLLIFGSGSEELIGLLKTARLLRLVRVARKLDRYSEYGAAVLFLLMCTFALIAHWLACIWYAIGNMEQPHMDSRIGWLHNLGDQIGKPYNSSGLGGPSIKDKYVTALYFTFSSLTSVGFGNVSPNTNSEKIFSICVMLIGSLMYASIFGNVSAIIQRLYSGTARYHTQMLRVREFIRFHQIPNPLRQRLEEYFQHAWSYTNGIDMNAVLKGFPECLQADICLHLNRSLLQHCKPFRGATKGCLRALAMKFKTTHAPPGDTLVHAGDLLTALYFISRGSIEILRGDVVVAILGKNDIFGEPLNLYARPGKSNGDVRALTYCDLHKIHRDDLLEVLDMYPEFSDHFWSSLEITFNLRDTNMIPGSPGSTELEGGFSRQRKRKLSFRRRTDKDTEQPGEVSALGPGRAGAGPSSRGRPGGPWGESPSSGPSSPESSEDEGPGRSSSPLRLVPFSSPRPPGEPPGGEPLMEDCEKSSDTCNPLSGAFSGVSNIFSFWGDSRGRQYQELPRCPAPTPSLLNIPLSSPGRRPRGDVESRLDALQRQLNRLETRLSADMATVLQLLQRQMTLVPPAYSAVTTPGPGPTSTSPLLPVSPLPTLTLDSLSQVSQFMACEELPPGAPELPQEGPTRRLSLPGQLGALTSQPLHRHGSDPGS
assay_overview: Human Ether-a-go-go-Related Gene (hERG) channel small molecule antagonists: fluorescence cell-based qHTS assay (AID 1671200); note: nearly all actives have a fitted effect of over 50% in size
particulars: hERG-U2OS cells, FluxOR thallium flux fluorescence; series mostly up to 76.8 µM
Results filed as inconclusive are left out. Calls of active or inactive are those of the source. The call rests on the fitted dose curve; in most records, active means well fitted inhibition curve with a large enough effect in the repeat runs; inconclusive means weak or mixed curves; inactive means flat fitted curve, though single readings scatter.
Your answer must be one of the following: Y (active), N (inactive)

Here's what some known entries look like.
molecule: CCCCCCCC/C=C\CCCCCCCC(=O)OC
class_label: N

molecule: COCCOC(=O)C1=C(C)NC(C)=C(C(=O)OC/C=C/c2ccccc2)C1c1cccc([N+](=O)[O-])c1 (stereo not given)
class_label: N

molecule: C[N+]1(C)CCC(=C(c2ccccc2)c2ccccc2)CC1
class_label: Y

molecule: CC(Cl)C(Cl)Cl (stereo not given)
class_label: N

molecule: CC(C)C(=O)O
class_label: N

Please let me know the test result on file for C[C@]12CCC(=O)C=C1C=C[C@@H]1[C@@H]2CC[C@@]2(C)[C@H]1CC[C@@]21CCC(=O)O1 . N

Please let me know the test result on file for CCCCCCCCCCCCCCC[C@H](O)[C@@H](N)CO . N

Please let me know the test result on file for CC(=O)Nc1ccccc1C . N

Please let me know the test result on file for CC(COc1ccc(C(C)(C)C)cc1)OS(=O)OCCCl (stereo not given) . N

Please let me know the test result on file for CCC(=O)OC/C=C/c1ccccc1 . N

Please let me know the test result on file for CCCc1c(OCCCOc2ccc(OCC(=O)O)cc2)ccc(C(C)=O)c1O . N

Please let me know the test result on file for CCn1cc(C(=O)O)c(=O)c2cc(F)c(N3CCNCC3)nc21 . N

Please let me know the test result on file for CCOC(=O)/C=C/C(=O)O . N

Please let me know the test result on file for C=CCOC(=O)/C=C\C(=O)OCC=C . N

Please let me know the test result on file for CC(CCO)CCc1ccccc1 (stereo not given) . N

Please let me know the test result on file for N#C/C(=C1/SC[C@@H](c2ccc(Cl)cc2Cl)S1)n1ccnc1 . Y

Please let me know the test result on file for O=C(O)c1snc(Cl)c1Cl . N

Please let me know the test result on file for Nc1nccs1 . N

Please let me know the test result on file for Oc1cc(O)c(Cl)cc1Cl . N

Please let me know the test result on file for CCN(Cc1cccc(S(=O)(=O)O)c1)c1ccc(C(=C2C=CC(=[N+](CC)Cc3cccc(S(=O)(=O)[O-])c3)C=C2)c2ccccc2)cc1 . N

* * *

assay_overview: qHTS RealTime-Glo MT Cell Viability Assay in HepG2 cells - 0 hour (AID 1224889); note: nearly all actives have a fitted effect of over 50% in size
particulars: RealTime-Glo luminescence; series mostly up to 76.8 µM
Results filed as inconclusive are left out. Active and inactive are the calls of the source. Calls come from the whole dose curve; as a rule, active = well fitted cell-killing curve with a large enough effect in the repeat runs; inconclusive = weak or mixed curves, or effect the other way; inactive = flat fitted curve, though single readings scatter.
Your answer must be one of the following: true for active, false for inactive

Here's what some known entries look like.
structure: Nc1ccc(S(=O)(=O)O)cc1
class_label: false
--
structure: CCCCCCCCSCCO
class_label: false
--
structure: c1ccc(COCc2ccccc2)cc1
class_label: false
--
structure: Cc1nccn1-c1ccc(Sc2cccc(C3(C(N)=O)CCOCC3)c2)cc1
class_label: false
--
structure: COC(=O)Nc1nc2ccc(C(=O)c3cccs3)cc2[nH]1
class_label: false

Please let me know the test result on file for CC(=O)Nc1ccc(N)cc1 . false

Please let me know the test result on file for CC(=O)OCC(=O)[C@@]12OC(C)(C)O[C@@H]1C[C@H]1[C@@H]3C[C@H](F)C4=CC(=O)C=C[C@]4(C)[C@@]3(F)[C@@H](O)C[C@@]12C . true

* * *

assay_overview: qHTS assay for small molecule agonists of the antioxidant response element (ARE) signaling pathway (AID 743202)
particulars: HepG2 ARE-bla reporter, beta-lactamase FRET, 16 h; series mostly up to 73.3 µM
Records with an inconclusive call do not appear. The source made the active and inactive calls. The call rests on the fitted dose curve; in most records, active means well fitted activation curve with a large enough effect in the signal ratio in the repeat runs (not every such curve was filed as active); inconclusive means weak or mixed curves, or effect the other way; inactive means no such curve, though single readings can be large or run the other way; the % refers to the signal ratio.
Your answer must be one of the following: Y (active), N (inactive)

Here's what some known entries look like.
structure: CC1=NN(c2ccc(C(=O)O)cc2)C(=O)C1
class_label: N

structure: CCOC(=O)OCC
class_label: N

structure: COC(=O)Nc1nc2ccc(C(=O)c3cccs3)cc2[nH]1
class_label: Y

Please let me know the test result on file for NC(=O)Cn1c(=O)cc(CCN2CCN(c3nccc4sccc34)CC2)c2ccc(F)cc21 . N

Please let me know the test result on file for CCCCCCCCCCCCCCCCBr . N

* * *

assay_overview: qHTS assay to identify small molecule agonists of the peroxisome proliferator-activated receptor delta (PPARd) signaling pathway - cell viability counter screen (AID 743211); note: nearly all actives have a fitted effect of over 55% in size
particulars: PPARd-bla HEK293H viability, CellTiter-Glo luminescence, 17 h; series mostly up to 62.6 µM
Records with an inconclusive call do not appear. Active and inactive are the calls of the source. Calls come from the whole dose curve; as a rule, active = well fitted cell-killing curve with a large enough effect in the repeat runs; inconclusive = weak or mixed curves; inactive = no such curve, though single readings can be large or run the other way.
Your answer must be one of the following: active, inactive

Here's what some known entries look like.
molecule: Oc1ccc(Nc2ccccc2)cc1
class_label: inactive
//
molecule: COc1ccccc1N=Nc1c(S(=O)(=O)O)cc2cc(S(=O)(=O)O)cc(NC(C)=O)c2c1O
class_label: inactive
//
molecule: COc1cc2ncnc(Nc3ccc(F)c(Cl)c3)c2cc1OCCCN1CCOCC1
class_label: active
//
molecule: O=C(O)c1c(O)c(-c2ccccc2)nc2ccccc12
class_label: inactive
//
molecule: CNC(=O)N(c1ccccc1)c1ccccc1
class_label: inactive
//
molecule: c1cc[c]([Bi]([c]2ccccc2)[c]2ccccc2)cc1
class_label: inactive

Please let me know the test result on file for OC/C(Br)=C(\Br)CO . inactive

Please let me know the test result on file for C=CC(C)(C)CC(=O)OC . inactive

Please let me know the test result on file for CN1Cc2cc(C(=O)N3CCC(C4CCNCC4)CC3)ccc2N[C@@H](CC(=O)O)C1=O . inactive

Please let me know the test result on file for O=C(O)c1ccc(CO)o1 . inactive

* * *

assay_overview: Caspase-3/7 induction in CHO-K1 cells by small molecules, qHTS cell viability counter screen (AID 1346979); note: nearly all actives have a fitted effect of over 35% in size
particulars: CellTiter-Fluor fluorescence, 17 h; series mostly up to 92.4 µM
Records with an inconclusive call do not appear. Active and inactive are the calls of the source. The call rests on the fitted dose curve; in most records, active means well fitted cell-killing curve with a large enough effect in the repeat runs; inconclusive means weak or mixed curves, or effect the other way; inactive means no such curve, though single readings can be large or run the other way.
Your answer must be one of the following: Y for active, N for inactive

Here's what some known entries look like.
molecule: CCC(C)(C)C1CCC(O)CC1 (centres undefined)
class_label: N
//
molecule: CC(C)CCCCCOC(=O)CCCCC(=O)OCCCCCC(C)C
class_label: N
//
molecule: CC(=O)OCC(=O)[C@H]1CC[C@H]2[C@@H]3CCC4=CC(=O)CC[C@]4(C)[C@H]3CC[C@]12C
class_label: N
//
molecule: O=C(O)C(Cc1cc(I)c(O)c(I)c1)c1ccccc1 (centres undefined)
class_label: N
//
molecule: COc1ccc([C@@H]2Sc3ccccc3NC(=O)[C@@H]2O)cc1
class_label: N

Please let me know the test result on file for O=C(O)c1ccc(CO)o1 . N
